- Measurement target: ER-α in MCF-7 cells (Homo sapiens, UniProt P03372)
- Sequence (P03372 1-595): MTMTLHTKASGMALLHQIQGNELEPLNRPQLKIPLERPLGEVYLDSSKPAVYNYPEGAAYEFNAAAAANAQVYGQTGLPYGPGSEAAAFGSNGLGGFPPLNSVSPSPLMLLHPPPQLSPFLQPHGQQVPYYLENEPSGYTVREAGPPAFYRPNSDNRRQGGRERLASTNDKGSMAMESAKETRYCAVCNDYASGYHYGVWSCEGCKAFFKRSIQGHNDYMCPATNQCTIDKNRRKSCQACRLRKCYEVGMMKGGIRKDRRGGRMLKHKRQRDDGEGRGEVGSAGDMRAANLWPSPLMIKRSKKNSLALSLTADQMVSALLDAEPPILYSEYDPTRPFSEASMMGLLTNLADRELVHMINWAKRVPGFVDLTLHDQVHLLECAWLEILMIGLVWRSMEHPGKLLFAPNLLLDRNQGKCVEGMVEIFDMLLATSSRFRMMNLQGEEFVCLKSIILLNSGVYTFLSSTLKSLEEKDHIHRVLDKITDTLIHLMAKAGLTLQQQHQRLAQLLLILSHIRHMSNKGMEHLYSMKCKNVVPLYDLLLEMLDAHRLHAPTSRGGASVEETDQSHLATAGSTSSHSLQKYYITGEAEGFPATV
- Test method notes: Breast cancer cell ER-α in cell western assay (SP1)
- Type: cell-based
- Set-up: endogenous in cells; host or cells: MCF-7
- Conditions: MCF7, SP1 antibody, 4 or 24 hr post compound addition, read-out: ER-α In Cell Western Assay (SP1) Max Response

Compound structure string: CCCCCOc1ccc(/C(CC)=C(\c2ccc(/C=C/C(=O)O)cc2)c2ccc3[nH]ncc3c2)cc1
Emax: ≥ 40%
--
Compound structure string: CC/C(=C(/c1ccc(/C=C/C(=O)O)cc1)c1cccc2[nH]nnc12)c1ccccc1
Emax: ≥ 40%
--
Compound structure string: O=C(O)/C=C/c1ccc(/C(=C(\c2ccccc2)C2CCC2)c2ccc3scnc3c2)cc1
Emax: ≥ 40%
--
Compound structure string: CC/C(=C(/c1ccc(/C=C/C(=O)O)cc1)c1ccc2nncn2c1)c1ccccc1
Emax: < 40%

----------
Consider the following compounds and their measured DC50 readings.
- Measurement target: ER-α in MCF-7 cells (Homo sapiens, UniProt P03372)
- Sequence (P03372 1-595): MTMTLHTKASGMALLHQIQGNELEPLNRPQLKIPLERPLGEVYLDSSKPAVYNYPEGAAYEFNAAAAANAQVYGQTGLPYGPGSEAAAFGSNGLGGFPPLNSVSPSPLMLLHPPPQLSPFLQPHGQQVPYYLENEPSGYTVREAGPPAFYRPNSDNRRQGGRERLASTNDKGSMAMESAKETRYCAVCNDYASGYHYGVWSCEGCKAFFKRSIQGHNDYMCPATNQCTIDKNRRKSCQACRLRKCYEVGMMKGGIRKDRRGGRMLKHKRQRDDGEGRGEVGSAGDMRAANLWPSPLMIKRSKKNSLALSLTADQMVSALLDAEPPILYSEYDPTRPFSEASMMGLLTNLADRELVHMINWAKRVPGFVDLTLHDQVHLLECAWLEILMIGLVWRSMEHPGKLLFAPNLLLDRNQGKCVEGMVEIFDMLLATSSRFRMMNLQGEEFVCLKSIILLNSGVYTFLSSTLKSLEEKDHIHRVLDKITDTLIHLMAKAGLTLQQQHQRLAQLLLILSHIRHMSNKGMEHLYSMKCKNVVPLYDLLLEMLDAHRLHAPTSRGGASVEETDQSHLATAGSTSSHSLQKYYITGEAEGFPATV
- Test method notes: Breast cancer cell ER-α in cell western assay (SP1)
- Type: cell-based
- Parameters: endogenous in cells; host or cells: MCF-7
- Conditions: SP1 antibody, 4 or 24 hr post compound addition, read-out: ER-α In Cell Western Assay (SP1) IC50
Assay endpoint: DC50

Compound structure string: CC/C(=C(/c1ccc(/C=C/C(=O)O)cc1)c1cnc2[nH]ccc2n1)c1ccccc1
Assay endpoint: DC50
Result: > 100 nM

Compound structure string: CC/C(=C(/c1ccc(/C=C/C(=O)O)cc1)c1ccc2[nH]ncc2c1)c1ccc(F)c(Oc2ccccc2)c1
Assay endpoint: DC50
Result: ≤ 100 nM

Compound structure string: CC/C(=C(/c1ccc(/C=C/C(=O)O)cc1)c1ccc2[nH]ncc2c1)c1cccc(-c2cccnc2)c1
Assay endpoint: DC50
Result: ≤ 100 nM

Compound structure string: CC/C(=C(/c1ccc(/C=C/C(=O)O)cc1)c1ccc2scnc2c1)c1ccc(F)cc1C
Assay endpoint: DC50
Result: ≤ 100 nM

----------
- Test system: MCF-7 cells
- Test method notes: Breast cancer cell viability assay (CellTiter-Glo, 5 days)
- Type: cell-based
- Conditions: Homo sapiens, MCF7, 120 h, 5 days' compound exposure

Compound structure string: CC/C(=C(/c1ccc(/C=C/C(=O)O)cc1)c1ccc2c(cnn2C(=O)C(C)C)c1)c1ccc(F)cc1Cl
IC50: ≤ 100 nM

Compound structure string: CC/C(=C(/c1ccc(/C=C/C(=O)O)cc1)c1ccc2[nH]ncc2c1F)c1ccc(Oc2ccccn2)cc1
IC50: ≤ 100 nM

Compound structure string: O=C(O)/C=C/c1ccc(/C(=C(\c2ccncc2Cl)C2CCC2)c2ccc3[nH]ncc3c2)cc1
IC50: ≤ 100 nM

Compound structure string: CC/C(=C(/c1ccc(/C=C/C(=O)NS(C)(=O)=O)cc1)c1ccc2c(cnn2C)c1)c1ccc(F)cc1Cl
IC50: > 100 nM

----------
- Measurement target: ER-α in MCF-7 cells (Homo sapiens)
- Test method notes: Breast cancer cell ER-α in cell western assay (SP1)
- Type: cell-based
- Set-up: endogenous in cells; host or cells: MCF-7
- Conditions: SP1 antibody, 4 or 24 hr post compound addition, read-out: ER-α In Cell Western Assay (SP1) IC50

Compound: CC/C(=C(/c1ccc(/C=C/C(=O)O)cc1)c1ccc2ccccc2c1)c1ccccc1 [Compound 123]
DC50: ≤ 100 nM

Compound: CC/C(=C(/c1ccc(/C=C/C(=O)O)cc1)c1ccc2[nH]ncc2c1)c1ccsc1 [Compound 24]
DC50: ≤ 100 nM

Compound: CC/C(=C(/c1ccc(/C=C/C(=O)O)cc1)c1ccc2[nH]ncc2c1)c1ccnn1C [Compound 208]
DC50: > 100 nM

Compound: CC/C(=C(/c1ccc(/C=C/C(=O)O)cc1)c1ccc2[nH]ncc2c1)c1ccc(OCCO)cc1 [Compound 360]
DC50: > 100 nM

Compound: CC/C(=C(/c1ccc(/C=C/C(=O)O)cc1)c1ccc2[nH]ncc2c1)c1ccc(OCCCOC)cc1 [Compound 340]
DC50: ≤ 100 nM

Compound: CC/C(=C(/c1ccc(/C=C/C(=O)NS(=O)(=O)c2ccccn2)cc1)c1ccc2[nH]ncc2c1)c1ccc(F)cc1Cl [Compound 432]
DC50: ≤ 100 nM

Compound: CC/C(=C(/c1ccc(/C=C/C(=O)O)cc1)c1cc2ccccc2o1)c1ccc(F)cc1Cl [Compound 169]
DC50: ≤ 100 nM

Compound: CC/C(=C(/c1ccc(/C=C/C(=O)O)cc1)c1cc2ccccc2s1)c1ccccc1 [Compound 142]
DC50: ≤ 100 nM

Compound: CC/C(=C(/c1ccc(/C=C/C(=O)O)cc1)c1ccc2[nH]ncc2c1F)c1ccc(Oc2cnccn2)cc1 [Compound 161]
DC50: ≤ 100 nM

Compound: CC/C(=C(/c1ccc(/C=C/c2nn[nH]n2)cc1)c1ccc2scnc2c1)c1ccc(F)cc1Cl [Compound 445]
DC50: ≤ 100 nM

Compound: CC/C(=C(/c1ccc(/C=C/C(=O)O)cc1)c1ccc2scnc2c1)c1cccc(Oc2ccccn2)c1 [Compound 300]
DC50: ≤ 100 nM

Compound: O=C(/C=C/c1ccc(/C(=C(\c2ccccc2)C2CCC2)c2ccc3[nH]nc(F)c3c2)cc1)NCC(F)(F)F [Compound 415]
DC50: ≤ 100 nM

Compound: CC/C(=C(/c1ccc(/C=C/C(=O)O)cc1)c1ccc2ccncc2c1)c1ccccc1 [Compound 168]
DC50: > 100 nM

Compound: CC/C(=C(/c1ccc(/C=C/C(=O)O)cc1)c1ccc2[nH]ncc2c1)c1ccc2nccn2c1 [Compound 260]
DC50: > 100 nM

Compound: CS(=O)(=O)c1ccc(Oc2ccc(/C(=C(\c3ccc(/C=C/C(=O)O)cc3)c3ccc4[nH]ncc4c3)C3CCC3)cc2)nc1 [Compound 162]
DC50: ≤ 100 nM

Compound: CC/C(=C(/c1ccc(/C=C/C(=O)O)cc1)c1ccc2[nH]ncc2c1)c1ccc(N(C)c2ccccc2)cc1 [Compound 396]
DC50: > 100 nM

Compound: O=C(O)/C=C/c1ccc(/C(=C(\c2ccccc2Cl)C2CC2)c2cccc3[nH]ncc23)cc1 [Compound 71]
DC50: ≤ 100 nM

Compound: CC/C(=C(/c1ccc(/C=C/C(=O)O)cc1)c1ccc2[nH]nnc2c1)c1ccc(F)cc1Cl [Compound 72]
DC50: ≤ 100 nM

Compound: O=C(/C=C/c1ccc(/C(=C(\c2ccccc2)C2CCC2)c2ccc3[nH]nc(F)c3c2)cc1)NCCO [Compound 414]
DC50: ≤ 100 nM

Compound: CC/C(=C(/c1ccc(/C=C/C(=O)O)cc1)c1ccc2[nH]ncc2c1)c1ccc(S(=O)(=O)C(F)(F)F)cc1 [Compound 288]
DC50: ≤ 100 nM

Compound: CC/C(=C(/c1ccc(/C=C/C(=O)O)cc1)c1ccc2[nH]ncc2c1)c1csc(-c2ccccc2)c1 [Compound 271]
DC50: ≤ 100 nM

Compound: CC/C(=C(/c1ccc(/C=C/C(=O)O)cc1)c1ccc2c(c1)OCO2)c1ccccc1 [Compound 128]
DC50: > 100 nM

Compound: CC/C(=C(/c1ccc(/C=C/C(=O)O)cc1)c1ccc2[nH]ncc2c1)c1ccc2sccc2c1 [Compound 272]
DC50: ≤ 100 nM

Compound: CC/C(=C(/c1ccc(/C=C/C(=O)O)cc1)c1ccc2[nH]ncc2c1F)c1cccc(Oc2cnccn2)c1 [Compound 377]
DC50: ≤ 100 nM

Compound: CC/C(=C(/c1ccc(/C=C/C(=O)O)cc1)c1cc(F)c2[nH]ncc2c1)c1cc[n+]([O-])cc1Cl [Compound 453]
DC50: > 100 nM

Compound: CC/C(=C(/c1ccc(/C=C/C(=O)NO)cc1)c1ccc2[nH]ncc2c1)c1ccccc1 [Compound 418]
DC50: ≤ 100 nM

Compound: CC/C(=C(/c1ccc(/C=C/c2noc(=O)[nH]2)cc1)c1ccc2[nH]ncc2c1)c1ccc(F)cc1Cl [Compound 437]
DC50: ≤ 100 nM

Compound: CC/C(=C(/c1ccc(/C=C/C(=O)O)cc1)c1ccc2[nH]ncc2c1)c1cccc(Oc2cccc(S(C)(=O)=O)c2)c1 [Compound 321]
DC50: ≤ 100 nM

Compound: CC/C(=C(/c1ccc(/C=C/C(=O)O)cc1)c1ccc2[nH]ncc2c1)c1cccc(OCCCCC(=O)O)c1 [Compound 352]
DC50: > 100 nM
